Data origin: PubChem BioAssay (EPA / NIEHS)

read-out: Cytochrome P450 3A4 (Homo sapiens); experiment: CLD_CYP3A4_6hr: CellzDirect (CLD) Gene Expression Assay for xenobiotic metabolism (CYP3A4) at 6 hours (AID 2283680)
Inconclusive results are not listed. Calls of active or inactive are those of the source. How the source made its calls: active means hit-call score of the fitted dose curve at least 0.9, where 1 is the maximum; inconclusive means response in the unintended direction; inactive means score below 0.9.
quantity measured: AC50

Please review the following examples before continuing.
> print(dat)
                           molecular.string  quantity.measured           result
1  COC(=O)c1ccc(I)cc1S(=O)(=O)NC(=O)Nc1nc(C)nc(OC)n1               AC50  348 nM (active)
2         O=C(O)C1(C(=O)Nc2ccc(Cl)cc2Cl)CC1               AC50         inactive
3                       c1ccc(Nc2ccccc2)cc1               AC50         inactive
4           CCOC(=O)NCCOc1ccc(Oc2ccccc2)cc1               AC50         inactive

Which AC50 value is on record for CN(C)C(=O)Nc1ccc(Cl)c(Cl)c1 ?
inactive

----------
read-out: xenobiotic metabolism (CYP1A2), CYP1A2 (gene 1544); assay: CLD_CYP1A2_6hr: CellzDirect (CLD) Gene Expression Assay for xenobiotic metabolism (CYP1A2) at 6 hours (AID 2283663)
Results filed as inconclusive are left out. Calls of active or inactive are those of the source. Rule for the calls: active = hit-call score of the fitted dose curve at least 0.9, where 1 is the maximum; inconclusive = response in the unintended direction; inactive = score below 0.9.
Write down one outcome, taken from active, inactive

Past entries and their recorded results:
> print(dat)
                                   compound  discrete.label
1  CCCCOC(=O)[C@@H](C)Oc1ccc(Oc2ccc(C(F)(F)F)cn2)cc1        inactive
2                c1ccc2[nH]c(-c3cscn3)nc2c1          active
3                       c1ccc(Nc2ccccc2)cc1        inactive
4  CC(C)(C)[C@@H](O)[C@@H](Cc1ccc(Cl)cc1)n1cncn1        inactive

Lab log entry: CCCN(CCC)C(=O)SCC — outcome as called in the assay?
inactive

Lab log entry: CCOC(=O)[C@H](C)Oc1ccc(Oc2nc3ccc(Cl)cc3o2)cc1 — outcome as called in the assay?
inactive

Lab log entry: CC1(C)C(C=C(Cl)Cl)C1C(=O)OCc1cccc(Oc2ccccc2)c1 (stereo unspecified) — outcome as called in the assay?
inactive

Lab log entry: CCN(CC)C(=O)c1cccc(C)c1 — outcome as called in the assay?
inactive

Lab log entry: CCCOC(=O)NCCCN(C)C — outcome as called in the assay?
inactive

Lab log entry: CCCCC(CC)COC(=O)c1ccccc1C(=O)O (stereo unspecified) — outcome as called in the assay?
inactive

Lab log entry: COc1nc(C)nc(NC(=O)NS(=O)(=O)c2ccccc2OCCCl)n1 — outcome as called in the assay?
inactive

Lab log entry: COCCO — outcome as called in the assay?
inactive

Lab log entry: OB(O)O — outcome as called in the assay?
inactive

Lab log entry: CCNc1nc(N)nc(Cl)n1 — outcome as called in the assay?
inactive

Lab log entry: CCN(Cc1c(F)cccc1Cl)c1c([N+](=O)[O-])cc(C(F)(F)F)cc1[N+](=O)[O-] — outcome as called in the assay?
active

Lab log entry: COc1c(Cl)ccc(Cl)c1C(=O)O — outcome as called in the assay?
inactive

Lab log entry: COC(=O)c1ccccc1S(=O)(=O)NC(=O)Nc1nc(OC(F)F)cc(OC(F)F)n1 — outcome as called in the assay?
inactive

Lab log entry: CCSC(=O)N(CC(C)C)CC(C)C — outcome as called in the assay?
inactive

Lab log entry: CCC(C)OC(=O)N1CCCCC1CCO (stereo unspecified) — outcome as called in the assay?
inactive

Lab log entry: CCOC(=O)COc1cc(-n2ncc(C(F)(F)F)c(C)c2=O)c(F)cc1Cl — outcome as called in the assay?
inactive

Lab log entry: COC(=O)c1ccc(I)cc1S(=O)(=O)NC(=O)Nc1nc(C)nc(OC)n1 — outcome as called in the assay?
inactive

----------
read-out: Cytochrome P450 2C19 (Homo sapiens); test: LTEA_HepaRG_CYP2C19: Life Technologies and Expression Analysis (LTEA) Assay for CYP2C19 using HepaRG (AID 2283482); settings: mRNA level, 48 h; actives raise or lower the signal
Active and inactive are the calls of the source. Rule for the calls: active = hit-call score of the fitted dose curve at least 0.9, where 1 is the maximum; inactive = score below 0.9.
Write down one outcome, taken from active, inactive

Lab log entry: CCOC(=O)C(C)Oc1ccc(Oc2nc3ccc(Cl)cc3o2)cc1 (centres undefined) — outcome as called in the assay?
active

Lab log entry: CCCCOC(=O)C(C)Oc1ccc(Oc2ccc(C(F)(F)F)cn2)cc1 (centres undefined) — outcome as called in the assay?
inactive

----------
assay: CEETOX_H295R_11DCORT: CeeTox H295R High-throughput Steroidogenesis Assay for 11-Deoxycortisol (11DCORT) (AID 2283432); details: actives raise or lower the signal
Active and inactive are the calls of the source. The calls were made as follows: active = hit-call score of the fitted dose curve at least 0.9, where 1 is the maximum; inactive = score below 0.9.
Write down one outcome, taken from active, inactive

> print(dat)
                                   compound  discrete.label
1  C=CCOC(Cn1ccnc1)c1ccc(Cl)cc1Cl (configuration not stated)          active
2                       CCOC(=O)c1ccc(O)cc1          active

Lab log entry: O=C(Nc1ccc([N+](=O)[O-])cc1Cl)c1cc(Cl)ccc1O — outcome as called in the assay?
inactive

----------
read-out: Apolipoprotein A-V (APOA5) gene, APOA5 (gene 116519); assay: LTEA_HepaRG_APOA5: Life Technologies and Expression Analysis (LTEA) Assay for Apolipoprotein A-V (APOA5) gene using HepaRG (AID 2283474); conditions: mRNA level, 48 h; actives raise or lower the signal
The source made the active and inactive calls. The calls were made as follows: active = hit-call score of the fitted dose curve at least 0.9, where 1 is the maximum; inactive = score below 0.9.
Write down one outcome, taken from T = active, F = inactive

Past entries and their recorded results:
> print(dat)
                           molecular.string  discrete.label
1                            O=C(O)c1ccccc1               F
2  O=C(Nc1ccc([N+](=O)[O-])cc1Cl)c1cc(Cl)ccc1O               T
3                    CC(C)CCCCCCc1ccc(O)cc1               F

Lab log entry: O=C(c1ccc(O)cc1O)c1ccc(O)cc1O — outcome as called in the assay?
F

Lab log entry: Cc1nn(C)c(Oc2ccccc2)c1C=NOCc1ccc(C(=O)OC(C)(C)C)cc1 — outcome as called in the assay?
T

Lab log entry: CCN(CC)C(=O)c1cccc(C)c1 — outcome as called in the assay?
F

Lab log entry: N#CSCSc1nc2ccccc2s1 — outcome as called in the assay?
F

Lab log entry: COC(=O)c1ccccc1C(=O)O — outcome as called in the assay?
F

Lab log entry: c1ccc2[nH]c(-c3cscn3)nc2c1 — outcome as called in the assay?
F

----------
read-out: Transforming growth factor beta 1 (TGFb1), TGFB1 (gene 7040); test: BSK_BE3C_TGFb1: BioMAP Diversity Plus: BE3C Assay for Transforming growth factor beta 1 (TGFb1) Biomarker Activity (AID 2283036); details: primary human bronchial epithelial cells; actives raise or lower the signal
Activity calls are given as the source filed them. The calls were made as follows: active = hit-call score of the fitted dose curve at least 0.9, where 1 is the maximum; inactive = score below 0.9.
quantity measured: AC50

Please review the following examples before continuing.
> print(dat)
                                   compound  quantity.measured            result
1  N[C@@H](Cc1cc(I)c(Oc2ccc(O)c(I)c2)c(I)c1)C(=O)O               AC50          inactive
2                     O=C(c1ccccc1)C1CCCCC1               AC50          inactive
3                    CC(C)CCCCCCc1ccc(O)cc1               AC50  26.2 µM (active)
4  CCOC(=O)COc1cc(-n2ncc(C(F)(F)F)c(C)c2=O)c(F)cc1Cl               AC50          inactive
5                        CCCOC(=O)NCCCN(C)C               AC50          inactive
6  O=C(Nc1ccc([N+](=O)[O-])cc1Cl)c1cc(Cl)ccc1O               AC50          inactive
7  CCCCC(CC)COC(=O)c1ccccc1C(=O)O (configuration not stated)               AC50  5.04 µM (active)
8      Oc1ccc(C(c2ccc(O)cc2)C(Cl)(Cl)Cl)cc1               AC50          inactive

Then there is this compound:
Which AC50 value is on record for C#CCOC(=O)[C@@H](C)Oc1ccc(Oc2ncc(Cl)cc2F)cc1 ?
inactive
